# Tested on: OVCAR-4 ovarian
# assay: NCI-60 one-dose screen, 48 h (100 = growth as untreated, 0 = no growth, -100 = all killed)
# statedConditions: 10 µM
# Procedure: Growth inhibition of the OVCAR-4 human tumor cell line is measured as a screen for anti-cancer activity. Cells are grown in 96 well plates and exposed to the test compound for 48 hours. Compounds are tested at a single concentration, which is 10^-5 M for most compounds. The reported endpoint is percent growth (GI% or GIPRCNT), where numbers from 0 - 100% represent growth inhibition, and numbers from -100% - 0 represent cell death. For example, a value of 40 represents 60% growth inhibition. […]
Compounds without any hit were thinned out: in the full panel of roughly 83,000, 20% have a hit.
Under this convention, condition met denotes growth strictly below 60% and condition not met denotes growth at or above 60%.

Cn1c(C(N)=O)cc2c1-c1nc(Nc3ccccc3)ncc1CCC2
condition met
COc1cc(NC(=O)c2sc3nc4c(cc3c2N)C(O)CCC4)cc(OC)c1 (stereo not given)
condition not met
ClC(Cl)(Cl)c1nc2nccnc2[nH]1
condition not met

Okay, next one:
Query: Field: below-cutoff. Rule: recorded growth strictly less than 60%. Subject: `COc1cc(Cl)cc(-c2nn(-c3cccc(NC(=O)Nc4cc(C(F)(F)F)cc(C(F)(F)F)c4)c3)cc2-c2ccncc2)c1`
Result: condition met
